Assay: optical density shifts of acrAB sulA E. coli – strain DRC41, OD650, 48 h, E. coli filamentation inducer project, primary screen (AID 1152);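 note: E. coli MC1000 strain DRC41 lacking acrAB efflux pump and sulA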
Conditions: higher = more signal, called active from +8 up or from −8 down
Active and inactive are the calls of the source.
Measurement type: z-score

Known z-score results, listed for orientation:
>>> result("O=c1cccc(-c2ccccc2Cl)o1")
"-0.685 (inactive)"
>>> result("C=CC[C@@]1(C(=O)N2CCCCC2)N=C(c2ccc(OCCCO)cc2)O[C@@H]1c1ccccc1N=[N+]=[N-]")
"0.432 (inactive)"
>>> result("CC(C)NC(=O)[C@@]1(Cc2ccccc2I)c2ccccc2C(=O)N(Cc2ccccc2Cl)[C@H]1c1ccc(CO)cc1")
"-0.522 (inactive)"
>>> result("NC(=O)[C@@H]1[C@H]2C(=O)O[C@H](c3ccccc3)[C@H](c3ccccc3)N2[C@H](c2ccc(OCCO)cc2)[C@@]12C(=O)Nc1ccc(C#CC3=CCCCC3)cc12")
"1.96 (inactive)"
>>> result("CCOC(=O)C[C@H]1[C@H](OC(=O)c2ccc(C(=O)c3ccccc3)cc2)[C@@H](NC(=O)Cc2ccc(OC)cc2)c2cc(OCCCO)ccc2N1C(=O)c1ccc2ccccc2n1")
"0.378 (inactive)"
>>> result("C=CCC(OC(C)=O)[C@@H]1[C@@H](N(Cc2ccc(-c3cccc(C(F)(F)F)c3)o2)C(=O)Cc2ccc(OC)cc2)c2cc(OCCCO)ccc2N1C(=O)c1ccc2ccccc2c1 (some centres undefined)")
"0.0395 (inactive)"
>>> result("Cc1c(NC(=O)/C(C#N)=C/c2cccc([N+](=O)[O-])c2)c(=O)n(-c2ccccc2)n1C")
"0.969 (inactive)"
>>> result("COc1ccc(C#Cc2ccc3c(c2)[C@]2(C(=O)N3)[C@H](c3ccc(O)cc3)N3[C@H](c4ccccc4)[C@H](c4ccccc4)OC(=O)[C@H]3[C@@H]2C(=O)N2CCc3cc(OC)c(OC)cc3C2)cc1")
"-0.291 (inactive)"

Note to self: z-score recorded for COCCOC(=O)N1C(=O)[C@@]2(c3cc(C#CC4(O)CCCCCC4)ccc31)[C@H](C(=O)Nc1nc3ccccc3s1)[C@H]1C(=O)O[C@H](c3ccccc3)[C@H](c3ccccc3)N1[C@@H]2c1ccccc1OCCO was 0.736 (inactive)

Note to self: z-score recorded for COC(=O)[C@@]1(Cc2ccc(F)cc2)[C@H]2c3cc(C(=O)N(C)C)n(Cc4ccc(C)o4)c3C[C@H]2CN1C(=O)c1ccccc1 was -0.92 (inactive)

Note to self: z-score recorded for COc1ccc([C@H]2C[C@H]3C(Br)=C[C@@]2(CO)C(=O)[C@]32CO2)cc1 was -0.532 (inactive)

Note to self: z-score recorded for C=C[C@H](C)[C@@H](OC(=O)Nc1ccc(SC)cc1)c1ccc(O)c2ccccc12 was -0.751 (inactive)

Note to self: z-score recorded for N#Cc1ccc(C(O)C2C=CC3C(=O)N(c4ccccc4)C(=O)C3N2Nc2ccccc2F)cc1 (centres undefined) was 0.55 (inactive)

Note to self: z-score recorded for C=CC[C@]1(C(=O)N2CCOCC2)N=C(c2ccc(OCCCO)cc2)O[C@H]1c1ccccc1N=[N+]=[N-] was 0.65 (inactive)

----------
Molecular target: Albumin (Bos taurus)
Test: compounds binding labelled BSA control protein – biochemical, small-molecule microarray, Alexa647 label, 635/667 nm fluorescence, artefact control for SMM control protein annotation, profiling panel (AID 1118);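 note: score merges 667 nm emission intensity and signal-to-noise per printed compound spot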
Details: BSA-A647 binding, fluorescence 635 nm, higher = more signal
Response key: y means composite z-score >= 0.6; n means composite z-score < 0.6.

These recorded examples may help you get a feel for the data.
>>> answer_label("C=CCNC(=O)[C@H]1[C@@H]2C(=O)O[C@@H](c3ccccc3)[C@@H](c3ccccc3)N2[C@@H](c2ccc(OCCO)cc2)[C@]12C(=O)Nc1ccc(C#CCC(C(=O)OC)C(=O)OC)cc12")
"y"
>>> answer_label("COCCOC(=O)N1C(=O)[C@@]2(c3cc(C#CC4(O)CCCCCC4)ccc31)[C@H](C(=O)Nc1nc3ccccc3s1)[C@H]1C(=O)O[C@H](c3ccccc3)[C@H](c3ccccc3)N1[C@@H]2c1ccc(OCCO)cc1")
"n"

Prompt line: Decide: is the reported value of composite z-score for [N-]=[N+]=NCc1ccccc1[C@@H]1OC(c2ccc(OCCCO)cc2)=N[C@]1(CCS(=O)(=O)c1ccccc1)C(N)=O equal to or greater than 0.6?
Response line: n

Prompt line: Decide: is the reported value of composite z-score for C=C(CCCC)/C(=C/C[C@H](OC(C)=O)c1ccc(OCCO)cc1)c1cnc2ccccc2c1 equal to or greater than 0.6?
Response line: n

----------
Each entry below carries its reported composite z-score.
Assay: binders of probe aHhip on microarray, primary screen, stem cell growth factor project, biochemical, small-molecule microarray, fluorescence 635/667 (AID 1087);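 note: score merges spot fluorescence at 667nm with spot signal to noise ratio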
Details: higher = more signal
Answer using only a numeral; do not append any unit.

Known composite z-score results, listed for orientation:
>>> quantitative_result("CN(C)CCCCNC(=O)[C@@H]1C[C@@H]2C(=O)N[C@@H](CCCCN)C(=O)N2[C@@H]1c1ccc(O)cc1")
0.151
>>> quantitative_result("OCCCC1=CC(C2CC2)N(Cc2cccc(OC(F)(F)F)c2)CC1 (configuration not stated)")
-0.0373
>>> quantitative_result("C=CCC(OC(C)=O)[C@@H]1[C@@H](N(Cc2cc3ccccc3o2)C(=O)Cc2ccc(OC)cc2)c2cc(OCCCO)ccc2N1C(=O)c1ccc2ccccc2c1 (some centres not stated)")
0.0505
>>> quantitative_result("CC#CC(=O)Oc1ccc(Br)cc1C=CC(=O)OCC")
0.095
>>> quantitative_result("COc1cc2c(cc1O)C(c1cccs1)N(Cc1cccc(OC(F)(F)F)c1)CC2 (configuration not stated)")
-0.164
>>> quantitative_result("C=C(C(=O)CC[C@H](OC(C)=O)c1ccccc1OCCO)C(C)C")
0.0854

Note to self: composite z-score recorded for CCCCC(=C=CC[C@@H](O)c1cccc(OCCO)c1)C[C@@H](O)c1ccccn1 was -0.0618

Note to self: composite z-score recorded for O=C(O)[C@H](Cc1ccccc1)n1cc(-c2ccccc2)nn1 was -0.181

Note to self: composite z-score recorded for C=C(CCCC)C(=O)CC[C@@H](OC(C)=O)c1ccc(CO)o1 was 0.0505

Note to self: composite z-score recorded for CCCC[C@H]1C[C@@H]1[C@@H]1N(P(=O)(c2ccccc2)c2ccccc2)C[C@@](O)(c2ccccc2)CC12CC2 was 0.893

Note to self: composite z-score recorded for CCOC(=O)C1=CCC(c2ccc(F)cc2)N(S(=O)(=O)c2ccc(C)cc2)C1 (configuration not stated) was -0.226

Note to self: composite z-score recorded for COC(=O)c1c2oc(c1C(=O)OC)C(=O)NC1(CCCCC1)c1cn(nn1)C[C@H](Cc1ccccc1)NC(=O)N[C@H](CO)CC2 was 0.0373

Note to self: composite z-score recorded for CC(=O)NCCCC[C@@H]1NC(=O)[C@H]2C[C@@H](C(=O)NCCCCCNC(=O)CS)[C@@H](c3ccc(O)cc3)N2C1=O was -0.175

----------
Molecular target: Alpha-bungarotoxin (Bungarus multicinctus) (UniProt P60615)
Sequence (P60615 whole entry, looked up): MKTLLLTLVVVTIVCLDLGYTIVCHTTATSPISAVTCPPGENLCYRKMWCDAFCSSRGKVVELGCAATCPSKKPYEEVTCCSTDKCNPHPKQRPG
Assay: compounds binding labelled alpha-BTX control protein – biochemical, small-molecule microarray, Alexa647 label, 635/667 nm fluorescence, artefact control for SMM control protein annotation, profiling panel (AID 1117)
Conditions: alpha-BTX-A647 binding fluorescence, higher = more signal
Each entry below carries its reported composite z-score.
Answer using only a numeral; do not append any unit.

>>> quantitative_result("CO[C@H]1O[C@H](CO)[C@@H](OC(=O)Nc2ccc(Oc3ccccc3)cc2)[C@H](OC(=O)Nc2ccc3c(c2)OCO3)[C@@H]1OC(=O)Nc1ccc2c(c1)OCO2")
1.26
>>> quantitative_result("O=C1OCCC=C[C@H]2OC34C=CCN(CCN5CCOCC5)C(=O)[C@H]3N(CCCCCO)C(=O)[C@@H]4C12 (stereo partly drawn)")
1.88

Now look at this one.
Note to self: composite z-score recorded for COC(=O)[C@@]1(Cc2ccccc2)[C@H]2c3cc(C(=O)N4CCCC4)n(Cc4c(CO)[nH]cc(C)c4=O)c3C[C@H]2CN1C(=O)c1ccccc1 was 0.546

----------
Assay: plasmodial surface anion channel blockers, osmotic lysis – cell-based, P. falciparum Indochina, OD700, 1 h, primary screen (AID 1154)
Conditions: P. falciparum Indochina infected RBC osmotic lysis, higher = more signal, called active from +8 up or from −8 down
Each entry below carries its reported z-score.
Answer using only a numeral; do not append any unit.

>>> quantitative_result("CCCCCCc1nc(-c2ccc(-c3ccc(Cl)c(Cl)c3)o2)c(C)c2c1[Si](C(C)C)(C(C)C)OC2")
1.88
>>> quantitative_result("COCCOC(=O)N1C(=O)[C@@]2(c3ccccc31)[C@H](C(=O)N1CCCCCCC1)[C@H]1C(=O)O[C@H](c3ccccc3)[C@H](c3ccccc3)N1[C@@H]2c1ccc(OCCO)cc1")
8.64
>>> quantitative_result("CN1CCC(CCCO)=CC1c1cccs1 (centres undefined)")
1.77

Now look at this one.
Note to self: z-score recorded for O=C1O[C@@H](c2ccccc2)[C@@H](c2ccccc2)N2[C@@H](c3ccccc3OCCO)[C@]3(C(=O)Nc4ccc(C#CC5(O)CCCCCC5)cc43)[C@@H](C(=O)N3CCN(c4ncccn4)CC3)[C@H]12 was 1.89
